Just for reference, BindingDB's records for doi:10.1074/jbc.M114.553248 is where these values come from.

SYSTEM_NAME: Isoform A1-A of Heterogeneous nuclear ribonucleoprotein A1 (A1-A) (Homo sapiens)
Sequence (P09651 as listed by the source): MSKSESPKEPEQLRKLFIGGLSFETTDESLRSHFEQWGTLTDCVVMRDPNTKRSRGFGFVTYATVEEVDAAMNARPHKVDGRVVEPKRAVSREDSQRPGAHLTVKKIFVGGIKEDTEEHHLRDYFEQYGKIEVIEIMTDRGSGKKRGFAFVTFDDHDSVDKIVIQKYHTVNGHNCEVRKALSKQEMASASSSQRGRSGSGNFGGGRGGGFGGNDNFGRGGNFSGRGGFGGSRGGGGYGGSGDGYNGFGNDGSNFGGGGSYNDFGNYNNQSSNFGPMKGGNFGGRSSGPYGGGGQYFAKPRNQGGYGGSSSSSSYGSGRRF
METHOD: Surface Plasmon Resonance (SPR) Assay
RUN_CONDITIONS: pH 4
MEASURED_PROPERTY: Kd (µM)
Numbers only; they are read as µM.

Notebook: `O=c1c(O)c(-c2ccc(O)c(O)c2)oc2cc(O)cc(O)c12` , Kd read as 8.9

* * *

SYSTEM_NAME: Isoform A1-A of Heterogeneous nuclear ribonucleoprotein A1 (A1-A) 68-320] (Homo sapiens)
METHOD: Surface Plasmon Resonance (SPR) Assay
RUN_CONDITIONS: pH 4
MEASURED_PROPERTY: pKd
Kindly note that pKd refers to -log10 of the concentration in mol/L and answer with the value alone.

Query `O=c1c(O)c(-c2ccc(O)c(O)c2)oc2cc(O)cc(O)c12` on Isoform A1-A of Heterogeneous nuclear ribonucleoprotein A1 (A1-A) 68-320] (Homo sapiens); pKd returned: 5.77
